Consider the following compounds; for each one, report its Ratio IC50.
Tested on: Plasmodium falciparum
Assay: Ratio of IC50 for trophozoite stage of Plasmodium falciparum 3D7 infected in RBC after 5 hrs in presence of 5 uM ALLN to IC50 for trophozoite stage of Plasmodium falciparum 3D7 infected in RBC after 5 hrs in absence of ALLN
Assay type: functional
When you answer, write just the number.

Ask: // lookup Ratio IC50 for Cc1[nH]c2ccccc2c1/C=C/c1cc(N)c2ccccc2[n+]1C.[I-]
Reply: 1.7

Ask: // next record C[n+]1c(/C=C/c2c[nH]c3ccccc23)cc(N)c2ccccc21.[I-]
Reply: 3

Ask: // next record CCN(CC)CCCC(C)Nc1cc(/C=C/c2c[nH]c3ccccc23)nc2ccccc12 (stereo not given)
Reply: 2.6

Ask: // next record CN(C)c1ccc2nc3ccc(N(C)C)cc3[s+]c2c1.[Cl-] [METHYLENE BLUE ANHYDROUS]
Reply: 3.2

Ask: // next record CC1(C)N=C(N)N=C(N)N1OCCCOc1cc(Cl)c(Cl)cc1Cl
Reply: 0.7
